Assay: in vivo
Details: rat, po, 3 mg/kg
parameterMeasured: half-life (h)
Please state the figure in h; there is no need to write the unit.

Q) # get_value(readout='half-life', item= CCc1cc2c(cc1Nc1ncc(C(F)(F)F)c(NCCCN3CCOCCC3=O)n1)OC[C@H]1CN(C3COC3)CCN21 [Compound A12R] )
A) 1.76

---

Assay: Pharmacokinetic study in rats
Details: rat, plasma, po, 3 mg/kg
parameterMeasured: half-life (h)
Please state the figure in h; there is no need to write the unit.

Some compounds with known half-life results, for comparison:
compound	unitTag	half-life
COc1cc2c(cc1Nc1ncc(C(F)(F)F)c(CCc3ccccc3CC(N)=O)n1)OC[C@H]1CN(C3CN(C)C3)CCN21	h	2.6
CNC(=O)c1ccccc1Nc1cc(Nc2cc3c(cc2OC(C)C)N2CCN(C4CCN(C)CC4)C[C@H]2CO3)ncc1C(F)(F)F	h	5.74
COc1cc2c(cc1Nc1ncc(Cl)c(Nc3cccnc3N3CCCC3=O)n1)OC[C@H]1CN(C(=O)C3CC3)CCN21	h	1.08

Q) If you can, please state the reported half-life value of COc1cc2c(cc1Nc1ncc(Cl)c(Nc3ccccc3S(=O)(=O)C(C)C)n1)OC[C@@H]1CN(C3CCOCC3)CCN21 .
A) 1.78

Q) Subsequent entry: COc1cc2c(cc1Nc1ncc(Cl)c(Nc3cccnc3N3CCCC3=O)n1)OC[C@H]1CN(C3CCN(C4CC4)CC3)CCN21 [Compound E10R]
A) 9.69

---

Test: in vivo
Conditions: rat, po, 3 mg/kg
parameterMeasured: Cmax
Output should be the measured figure followed by the unit it is expressed in.

Q) What value of Cmax has been reported for the following compound? CCc1cc2c(cc1Nc1ncc(C(F)(F)F)c(NCCCN3CCOCCC3=O)n1)OC[C@H]1CN(C3COC3)CCN21 [Compound A12R]
A) 487 ng/mL

---

The entries below are paired with their reported IC50.
Target: HPK1 kinase (Homo sapiens, UniProt Q92918)
Sequence (Q92918 whole entry): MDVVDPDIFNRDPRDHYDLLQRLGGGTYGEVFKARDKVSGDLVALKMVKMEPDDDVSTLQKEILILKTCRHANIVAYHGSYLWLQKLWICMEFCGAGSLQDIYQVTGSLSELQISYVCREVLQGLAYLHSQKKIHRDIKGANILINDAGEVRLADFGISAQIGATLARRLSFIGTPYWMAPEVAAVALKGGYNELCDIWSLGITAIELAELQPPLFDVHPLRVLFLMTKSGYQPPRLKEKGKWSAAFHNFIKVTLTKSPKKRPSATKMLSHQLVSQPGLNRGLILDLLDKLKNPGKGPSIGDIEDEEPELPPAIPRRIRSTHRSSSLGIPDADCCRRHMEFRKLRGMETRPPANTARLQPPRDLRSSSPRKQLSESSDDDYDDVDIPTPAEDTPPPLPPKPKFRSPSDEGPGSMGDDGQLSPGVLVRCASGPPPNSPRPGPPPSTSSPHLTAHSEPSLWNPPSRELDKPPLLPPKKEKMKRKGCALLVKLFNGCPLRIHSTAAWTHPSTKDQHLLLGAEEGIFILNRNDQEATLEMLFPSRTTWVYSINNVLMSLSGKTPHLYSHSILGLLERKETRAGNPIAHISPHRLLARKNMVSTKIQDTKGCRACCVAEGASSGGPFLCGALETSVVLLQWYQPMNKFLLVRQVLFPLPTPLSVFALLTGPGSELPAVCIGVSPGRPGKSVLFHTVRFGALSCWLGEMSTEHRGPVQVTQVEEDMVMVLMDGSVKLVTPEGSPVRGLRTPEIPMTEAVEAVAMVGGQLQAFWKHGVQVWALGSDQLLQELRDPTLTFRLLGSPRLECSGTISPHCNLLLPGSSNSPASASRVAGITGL
Test: HPK1 kinase activity inhibition assay (Mobility shift assay)
Format: biochemical
Details: Table 4; read-out: HPK1 (IC50)

compound	testedTarget	parameterMeasured	result
CNC(=O)c1ccccc1Nc1cc(Nc2cc3c(cc2OC)N2CCN(C4CCN(C)CC4)C[C@H]2CO3)ncc1C(F)(F)F [Compound D2S]	HPK1 kinase (Homo sapiens, UniProt Q92918)	IC50	< 30 nM

# context switch: different compound, same IC50
Q) Would you kindly share the measured IC50 for CNC(=O)c1ccccc1Nc1cc(Nc2cc3c(cc2OC)N2CCN(C4CN(C)C4)C[C@H]2CO3)ncc1C(F)(F)F [Compound D4S] ?
A) < 20 nM

---

Assay: Pharmacokinetic study in rats
Conditions: rat, plasma, po, 3 mg/kg
Below: a set of entries, each annotated with reported Cmax.

Example cases with answers are listed next.
molecule	Cmax
CCN1CCC(N2CCN3c4cc(OC)c(Nc5ncc(Cl)c(Nc6cccnc6N6CCCC6=O)n5)cc4OC[C@H]3C2)CC1	71.6 ng/mL
CCC(=O)N1CCN2c3cc(OC)c(Nc4ncc(Cl)c(Nc5cccnc5N5CCCC5=O)n4)cc3OC[C@H]2C1	352 ng/mL
COc1cc2c(cc1Nc1ncc(Cl)c(Nc3cccnc3N3CCCC3=O)n1)OC[C@H]1CN(C3CN(C)C3)CCN21	411 ng/mL

Q) What value of Cmax has been recorded for this entry: CCc1cc2c(cc1Nc1ncc(C(F)(F)F)c(NCCCN3CCCCC3=O)n1)OC[C@H]1CN(C)CCN21
A) 222 ng/mL

---

Assay: Pharmacokinetic study in rats
Conditions: rat, plasma, po, 3 mg/kg
parameterMeasured: Cmax
Put down the number, then write its unit next to it.

CNC(=O)c1ccccc1Nc1cc(Nc2cc3c(cc2OC(C)C)N2CCN(C4CCN(C)CC4)C[C@H]2CO3)ncc1C(F)(F)F 52.3 ng/mL
COc1cc2c(cc1Nc1ncc(C(F)(F)F)c(CCc3ccccc3CC(N)=O)n1)OC[C@H]1CN(C3CCOCC3)CCN21 200 ng/mL
CCc1cc2c(cc1Nc1ncc(C(F)(F)F)c(NCCCN3CCOCCC3=O)n1)OC[C@H]1CN(C)CCN21 74.2 ng/mL

Q) Can you share its Cmax? I mean this molecule: COc1cc2c(cc1Nc1ncc(C(F)(F)F)c(CCc3ccccc3CC(N)=O)n1)OC[C@H]1CN(C3CCN(C)CC3)CCN21
A) 76.4 ng/mL

---

Target: AXL (Homo sapiens, UniProt P30530)
Sequence (P30530 26-894): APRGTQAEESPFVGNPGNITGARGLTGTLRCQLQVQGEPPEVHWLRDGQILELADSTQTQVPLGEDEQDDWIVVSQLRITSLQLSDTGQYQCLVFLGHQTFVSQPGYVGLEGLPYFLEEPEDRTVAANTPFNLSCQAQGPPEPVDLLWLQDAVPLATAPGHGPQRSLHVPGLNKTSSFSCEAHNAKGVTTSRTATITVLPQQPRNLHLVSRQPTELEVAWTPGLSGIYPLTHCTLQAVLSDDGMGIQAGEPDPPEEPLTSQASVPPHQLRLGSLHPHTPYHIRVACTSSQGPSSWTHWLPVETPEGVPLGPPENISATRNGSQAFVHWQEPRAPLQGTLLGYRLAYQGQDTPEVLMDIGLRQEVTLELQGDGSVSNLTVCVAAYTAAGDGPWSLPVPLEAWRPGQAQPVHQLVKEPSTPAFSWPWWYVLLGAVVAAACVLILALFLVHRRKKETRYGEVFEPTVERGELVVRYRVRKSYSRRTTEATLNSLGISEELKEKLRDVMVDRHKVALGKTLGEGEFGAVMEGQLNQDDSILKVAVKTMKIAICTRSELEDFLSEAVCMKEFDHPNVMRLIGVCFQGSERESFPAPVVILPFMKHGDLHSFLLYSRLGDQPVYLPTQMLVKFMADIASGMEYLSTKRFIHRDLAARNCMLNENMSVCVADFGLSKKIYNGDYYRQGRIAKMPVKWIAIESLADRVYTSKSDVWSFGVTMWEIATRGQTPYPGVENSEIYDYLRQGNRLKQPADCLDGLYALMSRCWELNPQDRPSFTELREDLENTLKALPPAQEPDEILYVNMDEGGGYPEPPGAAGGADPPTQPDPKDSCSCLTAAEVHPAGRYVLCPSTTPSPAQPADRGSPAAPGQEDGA
Assay: AXL kinase activity inhibition assay (Mobility shift assay)
Type: biochemical
Settings: Table 3; read-out: AXL (IC50)
pIC50: −log10 of the molar value.
parameterMeasured: pIC50

Q) Record request: pIC50 value, item COc1cc2c(cc1Nc1ncc(Cl)c(Nc3ccccc3S(=O)(=O)C(C)C)n1)OC[C@@H]1CN(C3CCOCC3)CCN21
A) > 7.52

---

Assay: Pharmacokinetic study in rats
Conditions: rat, plasma, po, 3 mg/kg
Cmax: recorded values
Write it as a number; the unit ng/mL goes unstated.

Consider the following illustrative entries.
compound	Cmax [ng/mL]
COc1cc2c(cc1Nc1ncc(C(F)(F)F)c(CCc3ccccc3CC(N)=O)n1)OC[C@H]1CNCCN21 [Compound B3R]	68.9
COc1cc2c(cc1Nc1ncc(C(F)(F)F)c(CCc3ccccc3CC(N)=O)n1)OC[C@H]1CN(S(C)(=O)=O)CCN21 [Compound B8R]	39.3

Q) Which measured Cmax value corresponds to COc1cc2c(cc1Nc1ncc(Cl)c(Nc3ccccc3S(=O)(=O)C(C)C)n1)OC[C@@H]1CN(C3CCOCC3)CCN21 [Compound C1S] ?
A) 61.8

Q) Please answer likewise for CCc1cc2c(cc1Nc1ncc(C(F)(F)F)c(NCCCN3CCOCCC3=O)n1)OC[C@H]1CN(C3CCOCC3)CCN21 [Compound A3R]
A) 223

---

Assay: Pharmacokinetic study in rats
Settings: rat, plasma, po, 3 mg/kg
parameterMeasured: log10(Tmax) (log10 of the value in h)
Scale: log10; quantity: Tmax; unit before log: h

Would you please look over these solved cases?
compound	log10(Tmax)
CCc1cc2c(cc1Nc1ncc(C(F)(F)F)c(NCCCN3CCOCCC3=O)n1)OC[C@H]1CN(C3CCOCC3)CCN21 [Compound A3R]	0.08
CCc1cc2c(cc1Nc1ncc(C(F)(F)F)c(NCCCN3CCCCC3=O)n1)OC[C@H]1CN(C3CCN(C)CC3)CCN21 [Compound A6R]	0.83
COc1cc2c(cc1Nc1ncc(C(F)(F)F)c(CCc3ccccc3CC(N)=O)n1)OC[C@H]1CN(C3CCOCC3)CCN21 [Compound B4R]	-0.10

Q) Bench note: what log10(Tmax) did COc1cc2c(cc1Nc1ncc(Cl)c(Nc3ccccc3S(=O)(=O)C(C)C)n1)OC[C@@H]1CN(C3CCN(C)CC3)CCN21 [Compound C2S] show?
A) 1.00

Q) How about this compound: CCc1cc2c(cc1Nc1ncc(C(F)(F)F)c(NCCCN3CCOCCC3=O)n1)OC[C@H]1CN(C3CCN(C)CC3)CCN21 [Compound A2R]
A) 0.90

Q) Here is the next compound: CNC(=O)c1ccccc1Nc1cc(Nc2cc3c(cc2OC)N2CCN(C4CN(C)C4)C[C@H]2CO3)ncc1C(F)(F)F [Compound D4S]
A) 0.73

Q) Then COc1cc2c(cc1Nc1ncc(Cl)c(Nc3cccnc3N3CCCC3=O)n1)OC[C@H]1CN(C3CCOCC3)CCN21 [Compound E4R] ?
A) -0.30

Q) Do the same for CNC(=O)c1ccccc1Nc1cc(Nc2cc3c(cc2OC)N2CCN(C4CCN(C)CC4)C[C@H]2CO3)ncc1C(F)(F)F [Compound D2S] please
A) 0.52

Q) Next: COc1cc2c(cc1Nc1ncc(Cl)c(Nc3cccnc3N3CCCC3=O)n1)OC[C@H]1CN(C3CN(C)C3)CCN21 [Compound E8R]
A) 0.30

Q) Input CNC(=O)c1ccccc1Nc1cc(Nc2cc3c(cc2OC)N2CCN(C4CCOCC4)C[C@H]2CO3)ncc1C(F)(F)F [Compound D1S]
A) 0.22

Q) Same again, this time with CNC(=O)c1ccccc1Nc1cc(Nc2cc3c(cc2OC(C)C)N2CCN(C4CCN(C)CC4)C[C@H]2CO3)ncc1C(F)(F)F [Compound D6S]
A) 0.82

Q) Another: COc1cc2c(cc1Nc1ncc(Cl)c(Nc3cccnc3N3CCCC3=O)n1)OC[C@H]1CN(C3CCN(C4CC4)CC3)CCN21 [Compound E10R]
A) 0.56

Q) Same question, CCc1cc2c(cc1Nc1ncc(C(F)(F)F)c(NCCCN3CCOCCC3=O)n1)OC[C@H]1CNCCN21 [Compound A4R] this time
A) 0.08

Q) And the next one, COc1cc2c(cc1Nc1ncc(Cl)c(Nc3cccnc3N3CCCC3=O)n1)OC[C@H]1CN(C)CCN21 [Compound E2R] ?
A) 0.00

---

Experiment: Pharmacokinetic study in rats
Conditions: rat, plasma, po, 3 mg/kg
parameterMeasured: half-life (h)
// return numeric value only (unit: h, not printed)

Sample records with half-life:
compound	half-life [h]
COc1cc2c(cc1Nc1ncc(C(F)(F)F)c(CCc3ccccc3CC(N)=O)n1)OC[C@H]1CN(S(C)(=O)=O)CCN21	1.5
COc1cc2c(cc1Nc1ncc(C(F)(F)F)c(CCc3ccccc3CC(N)=O)n1)OC[C@H]1CN(C3CCN(C)CC3)CCN21	7.4
CCN1CCC(N2CCN3c4cc(OC)c(Nc5ncc(Cl)c(Nc6cccnc6N6CCCC6=O)n5)cc4OC[C@H]3C2)CC1	14.5
CCN1CCN2c3cc(OC)c(Nc4ncc(C(F)(F)F)c(CCc5ccccc5CC(N)=O)n4)cc3OC[C@H]2C1	2.8
CCc1cc2c(cc1Nc1ncc(C(F)(F)F)c(NCCCN3CCCCC3=O)n1)OC[C@H]1CN(C)CCN21	1

Q) Look at this compound and give its reported half-life. COc1cc2c(cc1Nc1ncc(Cl)c(Nc3cccnc3N3CCCC3=O)n1)OC[C@H]1CN(C)CCN21
A) 2.07

Q) # iterate: COc1cc2c(cc1Nc1ncc(Cl)c(Nc3cccnc3N3CCCC3=O)n1)OC[C@H]1CN(C3CCN(C(C)=O)CC3)CCN21 [Compound E11R]
A) 4.36
